I'd be grateful if you could share measured apparent KD of MS2 coat protein for these entries.
Tested on: MS2 coat protein
Assay: apparent KD of MS2 coat protein; higher = weaker reporter binding
Details: Eterna round: R107; input ligand: theophylline 2 mM
Answers are plain numbers, in µM.

Solved entries (count: 2):
ACAUGAGGAUCACCCAUGUAUUACCGGGAAGGAGCGCGUGAAAACGCAGGUAGGUCGCUCGGCGUCGUGCUGUAAAGCACGACGA [#1 Same State - Arginine A Attempt #25 (HarryS)]: 0.0156
ACCUGCGUUUGAUUCUAUCUGACGCAGGUUCGAGGACCGGUACGGCCGCCACUCGGACAUGAGGAUCACCCAUGUUUGACAUGGG [#03 Exclusion Tryptophan A]: 0.186

Prompt: What measured apparent KD of MS2 coat protein goes with AUACAUGAGGAUCACCCAUGUUAUAGUGAAGGAGCGACAUUUAGGUCAGGUAGGUCGCACUAUAGUAUUAUAAUUCUUAGUUCUU [JR_ExcArginiA_Sub018] ?
Response: 0.0218

----------
Tested on: K4 kissing-loop RNA reporter;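 note: bound reporter read as fluorescence of individual clusters on recovered sequencing chips by microscopy, with normalized cluster intensities fitted with a binding model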
Assay: apparent KD of K4 kissing-loop reporter; higher = weaker reporter binding
Conditions: Eterna round: R107; input ligand: tryptophan 2.4 mM
MEASUREMENT TYPE: apparent KD of K4 kissing-loop reporter (µM)
Answers are plain numbers, in µM.

Solved entries (count: 2):
UCGGCAGUGAACGAUACCAGCGUCACGUGGCUGGUGGUCACAUGAGUGAUGUUCAUGUAACGCCCUUGGCAGCGUGCGCGUACCG [KL-XTheo-B11]: 0.103
CGGCGCGGCGCGGCCGCCACUGCGCCUGGGUGCUCGCCGAGUGAUGUUCGUCGGCGGUUGGGUGGCAGGACCGGGUGCCGGCCCG [BDazzled - #18 SS Tryptophan B]: 0.768

# per-item lookup of apparent KD of K4 kissing-loop reporter; items listed below
1. AUUGUACAAGUGAUGUUUGUUUUUUCCGAAGGAGCGUCUAAUAAGACAGGUAGGUCGCGGAUUCUCUUAAUAAUCAGGUCAUUAA [JR_Nu_ExcArginiA_Sub020]
2. UCCUGCAAUCGCCCACGAAAGUGGAUUGAUACCAGAGUCGAAAGACUCCCUUGGCAGCGAGUGAUGUUCGAAGCAGGUAAAUAAA
3. AUUCUGUUUUUGAUGUUUUUUGUAUAAUGGCAGGAUAUCGUAGAAGCGAGAAGGGCUUUUAUGCGUUAUGAGUGAUGUUUGUAGG [ttytewvmullin]
4. AAGAAGGUCAAAGACCUUCGUGCACCUGAUACCAGUCGCGAAAGCGACCCUUGGCAGCAGGGCAGUGAUGUUGCCAAGUGCACAA [Omei KL Theo A SS A v1]
5. CUGAUGCUGAUGCGGCGGCCGGUGGUCGUGCGAGGACCGGUACGGCCGCCACUCGCGCGAGUGAUGUUCGCGCGUCGUCGUCGUC [First Shot]

Response:
1. 0.221
2. 0.459
3. 0.227
4. 0.823
5. 0.117

# per-item lookup of apparent KD of K4 kissing-loop reporter; items listed below
1. GAUGUCUAGAGAUCAUCUAGACACCUAGAUACCAGCAGAUAUAUCUGCCCUUGGCAGCUAGAACCAGUGAUGUUGGUAUAUGCUC [Theo A SS t3]
2. GAUACGUCAGUGAUGUUGAUGUAUUACACAGAGGAUAUCGUAAUGACGAGAAGGCUGAGCCAUCUAGAGAUACGUAAGACGUAUC [FMN A SS t5]
3. AACCGCCAGUCGGCCGCCACUCACAGCAGUGAUGUUGCUGAAAAUCUAAAAGAGUGAUGUUCUUAGAGGACCGGGACUCCAGGCG [Same State Tryptophan B GF 5]
4. AGAGUUGACGAAAAGUCAACUCUACGAGAAGGAGCGCACGAAAGUGCAGGUAGGUCGCUCAGUCCAGUGAUGUUGGAACAUAAAA [#OpenEnded 8]
5. UGGACCAAGGAGUGAUGUUCCAAAUGUGAUACCAGCCACGAAAGUGGCCCUUGGCAGCACUGCCAGGACGAAAACGUCCGGUCCU [#SwitchBubble 12 #StaticStem #K4Early]

Response:
1. 0.229
2. 0.205
3. 0.145
4. 0.0592
5. 0.261
